Target: Regulator of G-protein signaling 4 (Homo sapiens) (UniProt P49798)
Sequence (P49798 whole entry, looked up): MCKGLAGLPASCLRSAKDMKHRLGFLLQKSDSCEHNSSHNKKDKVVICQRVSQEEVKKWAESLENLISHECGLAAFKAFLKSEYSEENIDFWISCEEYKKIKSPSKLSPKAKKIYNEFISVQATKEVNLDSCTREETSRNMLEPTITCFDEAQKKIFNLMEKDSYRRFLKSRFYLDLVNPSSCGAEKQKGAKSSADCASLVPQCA
Assay: Inhibitors of Regulator of G Protein Signaling (RGS) 4: qHTS; note: nearly all actives have a fitted effect of over 75% in size
Details: Transcreener GDP fluorescence polarization, RGS4-accelerated GTP hydrolysis; series mostly up to 114 µM
Screen size: about 390,000 compounds; about 150 (0.038%) were called active. Not shown: some 3% with an inconclusive outcome. The full list was thinned out, with actives kept by preference.
value.type: outcome

Below, 5 molecules whose answers are already recorded.
>>> result("O=C(O)c1ccc2c(c1)N(Cc1ccc(F)cc1)C(=O)c1ccccc1S2=O (stereo unspecified)")
"inactive"
>>> result("Cc1ccccc1C(=O)N(Cc1ccc(N(C)C)cc1)CC1CCCO1 (stereo unspecified)")
"inactive"
>>> result("COC(=O)c1cc2occc2n1Cc1nc(-c2ccc(C)cc2)oc1C")
"inactive"
>>> result("COc1ccc(CNC(=O)c2cc3c(=O)[nH]c4ccccc4c3s2)cc1")
"inactive"
>>> result("CCCNC(=O)C(CC)n1nc(CC)n2c(cc3oc(C)cc32)c1=O (stereo unspecified)")
"inactive"

Incoming: // returns reported outcome for input `Cc1csc(-c2nc3ccccc3n2C)n1`
Outgoing: inactive

###

Target: Regulator of G-protein signaling 4 (Homo sapiens) (UniProt P49798)
Test: Inhibitors of Regulator of G Protein Signaling (RGS) 4: qHTS; note: nearly all actives have a fitted effect of over 75% in size
Settings: Transcreener GDP fluorescence polarization, RGS4-accelerated GTP hydrolysis; series mostly up to 114 µM
Experimental: G-protein-coupled receptors (GPCRs) are well-established targets for drug discovery and development. […] Two microliters of 500nM (2x working concentration) is dispensed into black medium-binding solid-bottom Kalypsys plates. […] An initial fluorescent polarization read (620 nm/688 nm) is performed on the Envision before the plate is incubated for 90 minutes at 30 deg C at a relative humidity of 80%. […]
Screen size: about 390,000 compounds; about 150 (0.038%) were called active. Another 3% or so got no clear call; they are omitted. This is one part of a sample in which actives are shown more often than they occur.
value.type: outcome

Below, 6 compounds whose answers are already recorded.
>>> result("CCN(CC)/[N+]([O-])=N/Oc1cc(O/[N+]([O-])=N/N2CCCC2CO)c([N+](=O)[O-])cc1[N+](=O)[O-] (centres undefined)")
"inactive"
>>> result("Cc1ccc(CCNC(=O)C2CCN(c3nnc(-n4cccc4CNc4ccc(C)cc4)s3)CC2)cc1")
"inactive"
>>> result("C=Cc1ccc(Cn2c(C(=O)O)c(CNC3CCCC3)c3ccc(C)cc32)cc1")
"inactive"
>>> result("Cc1cccc(NC(=O)CN(c2ccc(C(C)C)cc2)S(=O)(=O)c2c(C)nn(C)c2C)c1C")
"inactive"
>>> result("Cc1ccc(-c2cn3c(n2)sc2cc(C(=O)NCCCc4ccccc4)ccc23)cc1")
"inactive"
>>> result("C=C1CCN(C(CC(C)C)C(=O)NCc2cc(OC)c(OC)c(OC)c2)S(=O)(=O)c2ccccc21 (centres undefined)")
"inactive"

Incoming: // returns reported outcome for input `COc1ccc(CC(=O)NCCc2sc3nc(-c4ccc(OC)cc4)nn3c2C)cc1`
Outgoing: inactive

Incoming: // returns reported outcome for input COc1cc(OC)c2c(C)cc(=O)oc2c1C(CCN1CCCCC1)c1ccc(N(C)C)cc1 (centres undefined)
Outgoing: inactive

Incoming: // returns reported outcome for input `Cc1ccc(Cl)cc1N1CCN(S(=O)(=O)c2cc3[nH]c(=O)c(=O)[nH]c3cc2C)CC1`
Outgoing: inactive
